Data provenance: the supplement of paper PMC9170038

system: MS2 coat protein; assay: apparent KD of MS2 coat protein; designed switch direction (-1 OFF switch, 1 ON switch): -1; higher = weaker reporter binding; details: input ligand: none
Below, each of the sequences is paired with its reported apparent KD of MS2 coat protein value.

>  <SEQUENCE CONTENT>
CAGAGCUUUUACUCGUCUUACAUGAGGAUCACCCAUGUCUCCUAGUGGGUAAAAUAUUAAGAAGAAAUUCUUAAUAA [jun14#1] (Eterna round: R97, puzzle: Sensor, turn-off variant 1)

>  <apparent KD of MS2 coat protein (nM)>
145

$$$$
>  <SEQUENCE CONTENT>
UAAUUCGUAGGAUAUACAAAGGGAGAAUGAUUGCGGUCCUGACAUGAGGAUCACCCAUGUAGAAGGAUGAGGGU [Eternabot (L1) Solution 41] (Eterna round: R97, puzzle: Exclusion 2)

>  <apparent KD of MS2 coat protein (nM)>
88.6

$$$$
>  <SEQUENCE CONTENT>
AUCCAGGCAGGAUAUUGCCGGUUGCACAUGAGGAUCACCCAUGUACUCCUAGGUCGAUGGCAAGAAGGGCUAUCCA [Eternabot (Original) Solution 24] (Eterna round: R97, puzzle: Exclusion 5)

>  <apparent KD of MS2 coat protein (nM)>
36

$$$$
